Molecular target: T1, CTLA4 antigen on the surface of 293F-CTLA4 host cells (UniProt P16410 36-223, limits assumed)
T1 construct: whole, on cells
T1 sequence (looked up): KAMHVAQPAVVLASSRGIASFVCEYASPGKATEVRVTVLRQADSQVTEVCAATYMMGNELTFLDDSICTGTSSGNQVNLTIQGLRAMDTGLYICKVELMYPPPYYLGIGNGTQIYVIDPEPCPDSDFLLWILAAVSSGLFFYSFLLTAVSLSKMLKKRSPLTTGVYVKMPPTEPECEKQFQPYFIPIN
Assay: flow cytometry, 293F-CTLA4 cells
Listing: EC50 of selected binders
Your answer is read as nM, so omit the unit and give the number.

Study these solved cases before continuing.
humanized antibody 8D2H2L2 (antibody, V domains shown, also called 8D2H2L2(20150327); 8D2H2L2(20140422)) VH: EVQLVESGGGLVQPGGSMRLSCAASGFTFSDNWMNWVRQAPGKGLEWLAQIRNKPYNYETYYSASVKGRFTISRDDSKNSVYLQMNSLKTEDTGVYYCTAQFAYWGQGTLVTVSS VL: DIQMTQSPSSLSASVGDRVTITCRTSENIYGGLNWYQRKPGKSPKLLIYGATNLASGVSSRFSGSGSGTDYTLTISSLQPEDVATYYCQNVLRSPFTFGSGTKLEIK	4.37
humanized antibody 8D2H3L3 (antibody, V domains shown) VH: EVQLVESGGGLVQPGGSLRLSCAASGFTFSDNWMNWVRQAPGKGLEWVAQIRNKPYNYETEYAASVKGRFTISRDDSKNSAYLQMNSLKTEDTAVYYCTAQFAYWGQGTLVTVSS VL: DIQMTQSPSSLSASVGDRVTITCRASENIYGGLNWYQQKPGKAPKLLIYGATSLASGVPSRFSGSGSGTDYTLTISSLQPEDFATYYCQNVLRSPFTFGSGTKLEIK	4.54
8D2 recombinant antibody, 8D2(Re) (antibody, V domains shown) VH: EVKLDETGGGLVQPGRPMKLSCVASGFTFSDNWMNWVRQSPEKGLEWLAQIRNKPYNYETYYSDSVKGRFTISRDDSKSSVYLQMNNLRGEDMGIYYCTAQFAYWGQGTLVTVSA VL: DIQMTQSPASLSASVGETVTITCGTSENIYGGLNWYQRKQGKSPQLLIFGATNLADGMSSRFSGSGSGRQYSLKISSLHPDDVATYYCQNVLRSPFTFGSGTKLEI	1.38
humanized antibody 8D2H1L1 (antibody, V domains shown) VH: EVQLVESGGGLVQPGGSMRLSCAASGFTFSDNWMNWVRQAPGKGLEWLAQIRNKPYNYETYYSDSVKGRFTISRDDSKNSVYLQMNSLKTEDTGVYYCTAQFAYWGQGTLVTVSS VL: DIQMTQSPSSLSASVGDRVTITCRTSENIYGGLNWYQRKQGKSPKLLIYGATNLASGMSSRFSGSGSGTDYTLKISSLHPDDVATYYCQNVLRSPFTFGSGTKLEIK	5.06

Query block: Provide only the value of recorded EC50 for monoclonal antibody 8D2 (antibody, V domains shown, Murine antibody purified from hybridoma supernatant; also called mAb 8D2; antibody secreted by the CTLA4-8D2 hybridoma cell line LT001) VH: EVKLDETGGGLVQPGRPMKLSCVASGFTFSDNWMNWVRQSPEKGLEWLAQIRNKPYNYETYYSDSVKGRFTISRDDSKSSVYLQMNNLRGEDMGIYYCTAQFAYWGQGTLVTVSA VL: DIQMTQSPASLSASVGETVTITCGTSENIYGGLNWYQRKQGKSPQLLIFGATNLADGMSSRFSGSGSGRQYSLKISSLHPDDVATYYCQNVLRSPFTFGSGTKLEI
Result block: 3.84
